These data points were gathered from paper PMC9965520.

TARGET OR TEST SYSTEM: ACE (Oryctolagus cuniculus, UniProt P12822)
ASSAY NAME: ACE hydrolysis of synthetic substrate candidates monitored by LC-MS at different incubation times
Assay type: in vitro ADME, rabbit
Parameters: ACE (EC 3.4.15.1, 1 unit) from rabbit lungs; purchased Sigma Chemical Co. (St. Louis, MO, USA); host or cells: rabbit lungs (tissue-derived enzyme)
CONDITION LABEL: synthetic peptide incubated with ACE, 37 °C, 3 h, LC-MS/MS
No end group written: not given here.
VALUE KIND: Hydrolysis of synthetic peptide by ACE (result in words)

- IASGEPTSTPTTE [IE-13]: avoid ACE’s hydrolysis
- NIPPLTQTPV [NV-10]: avoid ACE’s hydrolysis

====

I'd be grateful if you could share measured Substrate content (%) 30min for these entries.
TARGET OR TEST SYSTEM: ACE (Oryctolagus cuniculus, UniProt P12822)
ASSAY NAME: ACE hydrolysis of synthetic substrate candidates monitored by LC-MS at different incubation times
Type: in vitro ADME, rabbit
Parameters: ACE (EC 3.4.15.1, 1 unit) from rabbit lungs; purchased Sigma Chemical Co. (St. Louis, MO, USA); host or cells: rabbit lungs (tissue-derived enzyme)
CONDITION LABEL: synthetic peptide with ACE, 37 °C, 30 min; RS% = As/(As+Ap)x100 from SIC peak areas, LC-MS
No end group written: not given here.
Just the number please, in %, no unit attached.

[Q] Can you look up the measured Substrate content (%) 30min of HLPLPLLQSW [HW-10] for me?
[A] 2.47

[Q] Can you look up the measured Substrate content (%) 30min of FFVAPFPEVF [FF-10] for me?
[A] 76.08

[Q] Can you look up the measured Substrate content (%) 30min of LVYPFPGPIHNSL [LL-13] for me?
[A] 7.80

[Q] Can you look up the measured Substrate content (%) 30min of YVPLGTQ [YQ-7] for me?
[A] 8.35

[Q] Can you look up the measured Substrate content (%) 30min of LHLPLPLL [LL-8] for me?
[A] 58.04

[Q] Can you look up the measured Substrate content (%) 30min of AYFYPELFR [AR-9] for me?
[A] 2.40

====

TARGET OR TEST SYSTEM: ACE (Oryctolagus cuniculus, UniProt P12822)
Sequence (P12822 34-1310): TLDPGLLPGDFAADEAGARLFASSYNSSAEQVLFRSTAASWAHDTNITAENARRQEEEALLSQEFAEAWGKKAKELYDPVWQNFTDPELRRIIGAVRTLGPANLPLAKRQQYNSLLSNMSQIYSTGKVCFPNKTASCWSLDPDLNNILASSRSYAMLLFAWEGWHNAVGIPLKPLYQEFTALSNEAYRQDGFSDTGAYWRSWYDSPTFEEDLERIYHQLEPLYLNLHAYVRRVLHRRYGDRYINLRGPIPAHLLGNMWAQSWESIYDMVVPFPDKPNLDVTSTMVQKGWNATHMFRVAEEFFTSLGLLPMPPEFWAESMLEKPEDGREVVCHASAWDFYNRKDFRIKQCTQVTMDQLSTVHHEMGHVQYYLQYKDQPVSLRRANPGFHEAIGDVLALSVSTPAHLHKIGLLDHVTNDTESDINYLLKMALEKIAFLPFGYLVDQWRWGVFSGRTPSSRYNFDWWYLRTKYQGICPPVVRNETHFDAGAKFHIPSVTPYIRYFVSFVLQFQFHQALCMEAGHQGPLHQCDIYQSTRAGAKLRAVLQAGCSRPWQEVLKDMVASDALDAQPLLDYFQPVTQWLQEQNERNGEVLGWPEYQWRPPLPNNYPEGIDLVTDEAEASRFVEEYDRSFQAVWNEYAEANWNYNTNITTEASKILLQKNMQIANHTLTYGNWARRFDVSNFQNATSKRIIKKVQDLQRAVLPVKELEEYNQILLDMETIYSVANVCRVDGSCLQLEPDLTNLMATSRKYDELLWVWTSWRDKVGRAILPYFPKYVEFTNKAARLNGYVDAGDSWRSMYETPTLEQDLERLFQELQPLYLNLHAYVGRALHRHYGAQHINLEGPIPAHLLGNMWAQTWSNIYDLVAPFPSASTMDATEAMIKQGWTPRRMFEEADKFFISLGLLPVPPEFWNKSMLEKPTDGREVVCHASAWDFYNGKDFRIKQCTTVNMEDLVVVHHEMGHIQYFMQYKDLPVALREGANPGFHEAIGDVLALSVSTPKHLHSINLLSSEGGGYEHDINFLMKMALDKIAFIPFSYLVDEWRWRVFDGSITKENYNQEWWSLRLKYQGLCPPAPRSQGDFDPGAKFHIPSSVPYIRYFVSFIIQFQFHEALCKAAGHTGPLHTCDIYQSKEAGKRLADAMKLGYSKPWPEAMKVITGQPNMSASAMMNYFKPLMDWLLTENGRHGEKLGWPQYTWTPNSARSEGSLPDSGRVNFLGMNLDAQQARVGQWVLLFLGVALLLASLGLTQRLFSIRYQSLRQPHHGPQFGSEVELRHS
ASSAY NAME: ACE hydrolysis of synthetic substrate candidates monitored by LC-MS at different incubation times
Assay type: in vitro ADME, rabbit
Parameters: ACE (EC 3.4.15.1, 1 unit) from rabbit lungs; purchased Sigma Chemical Co. (St. Louis, MO, USA); host or cells: rabbit lungs (tissue-derived enzyme)
CONDITION LABEL: synthetic peptide with ACE, 37 °C, 180 min; RS% = As/(As+Ap)x100 from SIC peak areas, LC-MS
No end group written: not given here.
I'd be grateful if you could share measured Substrate content (%) 180min for these entries.
Just the number please, in %, no unit attached.

[Q] # query: Substrate content (%) 180min | item LVYPFPGPIHNSL [LL-13] | system: ACE (Oryctolagus cuniculus, UniProt P12822)
[A] 1.05

[Q] # query: Substrate content (%) 180min | item HLPLPLLQSW [HW-10] | system: ACE (Oryctolagus cuniculus, UniProt P12822)
[A] 0.00

[Q] # query: Substrate content (%) 180min | item YVPLGTQ [YQ-7] | system: ACE (Oryctolagus cuniculus, UniProt P12822)
[A] 5.83

[Q] # query: Substrate content (%) 180min | item LHLPLPLL [LL-8] | system: ACE (Oryctolagus cuniculus, UniProt P12822)
[A] 6.82

[Q] # query: Substrate content (%) 180min | item FFVAPFPEVF [FF-10] | system: ACE (Oryctolagus cuniculus, UniProt P12822)
[A] 14.21

[Q] # query: Substrate content (%) 180min | item AYFYPELFR [AR-9] | system: ACE (Oryctolagus cuniculus, UniProt P12822)
[A] 0.00

====

I'd be grateful if you could share measured IC50 for these entries.
TARGET OR TEST SYSTEM: ACE (Oryctolagus cuniculus, UniProt P12822)
ASSAY NAME: ACE inhibitory (ACEI) assay with HHL as substrate, with and without ACE pre-incubation
Type: biochemical, rabbit
Design: ACE (EC 3.4.15.1, 1 unit) from rabbit lungs; purchased Sigma Chemical Co. (St. Louis, MO, USA); host or cells: rabbit lungs (tissue-derived enzyme)
CONDITION LABEL: peptide pre-incubated with ACE, then HHL assay; 37 °C; HA by HPLC-UV 228 nm; mean ± SD, triplicate; read-out: IC50 (μM) (Pre-Incubation)
No end group written: not given here.
Just the number please, in µM, no unit attached.

[Q] Can you look up the measured IC50 of YVPLGTQ [YQ-7] for me?
[A] 189

[Q] Can you look up the measured IC50 of AYFYPELFR [AR-9] for me?
[A] 25.3

[Q] Can you look up the measured IC50 of LVYPFPGPIHNSL [LL-13] for me?
[A] 27.3

[Q] Can you look up the measured IC50 of FFVAPFPEVF [FF-10] for me?
[A] 44.6

[Q] Can you look up the measured IC50 of LHLPLPLL [LL-8] for me?
[A] 71.9

[Q] Can you look up the measured IC50 of HLPLPLLQSW [HW-10] for me?
[A] 17.8

====

I'd be grateful if you could share measured Substrate content (%) 60min for these entries.
TARGET OR TEST SYSTEM: ACE (Oryctolagus cuniculus)
ASSAY NAME: ACE hydrolysis of synthetic substrate candidates monitored by LC-MS at different incubation times
Type: in vitro ADME, rabbit
Set-up: ACE (EC 3.4.15.1, 1 unit) from rabbit lungs; purchased Sigma Chemical Co. (St. Louis, MO, USA); host or cells: rabbit lungs (tissue-derived enzyme)
CONDITION LABEL: synthetic peptide with ACE, 37 °C, 60 min; RS% = As/(As+Ap)x100 from SIC peak areas, LC-MS
Protocol: To confirm the reactivity of the identified peptide candidates towards ACE, the synthetic peptides were individually mixed with ACE and incubated at 37 °C for 3 h. The remaining peptide substrate and the resulting product were analyzed using LC-MS/MS. Meanwhile, the degradation rate of each peptide was monitored every 30 min using LC-MS. The percentage of the remaining substrate (RS%) at each time point was calculated as As/(As + Ap) 100%. […]
No end group written: not given here.
Please state the value followed by its unit.

[Q] Can you look up the measured Substrate content (%) 60min of FFVAPFPEVF [FF-10] for me?
[A] 49.76%

[Q] Can you look up the measured Substrate content (%) 60min of HLPLPLLQSW [HW-10] for me?
[A] 0.00%

[Q] Can you look up the measured Substrate content (%) 60min of LHLPLPLL [LL-8] for me?
[A] 37.06%

[Q] Can you look up the measured Substrate content (%) 60min of AYFYPELFR [AR-9] for me?
[A] 1.59%

[Q] Can you look up the measured Substrate content (%) 60min of YVPLGTQ [YQ-7] for me?
[A] 7.02%

[Q] Can you look up the measured Substrate content (%) 60min of LVYPFPGPIHNSL [LL-13] for me?
[A] 7.20%
